TEST_PROTOCOL: Antioxidant activity assessed as DPPH free radical scavenging activity
Type: physicochemical
Readings of log10 EC50 for the listed molecules
Reminder: these figures are log10 of reported EC50, in µg/mL before transformation.

Record excerpt, results attached:
| MOLECULE | NUMERIC_RESULT |
| --- | --- |
| C=CCCCCCCCCC(=O)Nc1cc2c(cc1F)c(=O)c(C(=O)OCC)cn2CC | 2.17 |
| CCCCCCCC(=O)Nc1cc2c(cc1F)c(=O)c(C(=O)OCC)cn2CC | 2.04 |
| CCCCCCCCCCCCCCCCCC(=O)Nc1cc2c(cc1F)c(=O)c(C(=O)OCC)cn2CC | 2.90 |
| CCCCCCCCCCCCCC(=O)Nc1cc2c(cc1F)c(=O)c(C(=O)OCC)cn2CC | 2.46 |
| CCCCCC(=O)Nc1cc2c(cc1F)c(=O)c(C(=O)OCC)cn2CC | 1.53 |
| Cc1cc(C(C)(C)C)c(O)c(C(C)(C)C)c1 [BUTYLATED HYDROXYTOLUENE] | 1.45 |
| CCCCCCCC/C=C/CCCCCCCC(=O)Nc1cc2c(cc1F)c(=O)c(C(=O)OCC)cn2CC | 2.88 |

Now take the following molecule into account.
May I ask what log10 EC50 has been recorded for Cc1c(C)c2c(c(C)c1O)CC[C@@](C)(CCC[C@H](C)CCC[C@H](C)CCCC(C)C)O2 ?
1.02

* * *

TEST_PROTOCOL: Cytotoxicity against human DU145 cells assessed as reduction in cell viability by MTT assay
Type: functional, cell-based
CONDITIONS_USED: DU-145
PARAMETER_MEASURED: log10 IC50 (log10 of the value in µM)
Reminder: these figures are log10 of reported IC50, in µM before transformation.

| SMILES_REPRESENTATION | log10 IC50 |
| --- | --- |
| CCCCCCCC(=O)Nc1cc2c(cc1F)c(=O)c(C(=O)OCC)cn2CC | 1.00 |
| CCCCCCCCCCCCCC(=O)Nc1cc2c(cc1F)c(=O)c(C(=O)OCC)cn2CC | 1.02 |
| C=CCCCCCCCCC(=O)Nc1cc2c(cc1F)c(=O)c(C(=O)OCC)cn2CC | 1.94 |
| CCCCCC(=O)Nc1cc2c(cc1F)c(=O)c(C(=O)OCC)cn2CC | 0.99 |
| CCCCCCCCCCCCCCCCCC(=O)Nc1cc2c(cc1F)c(=O)c(C(=O)OCC)cn2CC | 1.57 |
| CCCCCCCCCCCCCCCC(=O)Nc1cc2c(cc1F)c(=O)c(C(=O)OCC)cn2CC | 1.40 |

May I ask what log10 IC50 has been recorded for CCCCCCCCCCCC(=O)Nc1cc2c(cc1F)c(=O)c(C(=O)OCC)cn2CC ?
1.08

May I ask what log10 IC50 has been recorded for COc1cccc2c1C(=O)c1c(O)c3c(c(O)c1C2=O)C[C@@](O)(C(=O)CO)C[C@@H]3O[C@H]1C[C@H](N)[C@H](O)[C@H](C)O1 ?
-0.15
